These measurements were taken from patent EP4725966A1.

Item-by-item account of koff
- Target or test system: T1, cynomolgus HER3-ECD-His (cynomolgus monkey, UniProt G7PIG5 20-643)
- T1 construct: extracellular domain; Bought protein (Sino Biological); also called Cyno HER3-ECD-His; Cyno HER3; not shown: His tag
- T1 sequence (G7PIG5 entry or part of it): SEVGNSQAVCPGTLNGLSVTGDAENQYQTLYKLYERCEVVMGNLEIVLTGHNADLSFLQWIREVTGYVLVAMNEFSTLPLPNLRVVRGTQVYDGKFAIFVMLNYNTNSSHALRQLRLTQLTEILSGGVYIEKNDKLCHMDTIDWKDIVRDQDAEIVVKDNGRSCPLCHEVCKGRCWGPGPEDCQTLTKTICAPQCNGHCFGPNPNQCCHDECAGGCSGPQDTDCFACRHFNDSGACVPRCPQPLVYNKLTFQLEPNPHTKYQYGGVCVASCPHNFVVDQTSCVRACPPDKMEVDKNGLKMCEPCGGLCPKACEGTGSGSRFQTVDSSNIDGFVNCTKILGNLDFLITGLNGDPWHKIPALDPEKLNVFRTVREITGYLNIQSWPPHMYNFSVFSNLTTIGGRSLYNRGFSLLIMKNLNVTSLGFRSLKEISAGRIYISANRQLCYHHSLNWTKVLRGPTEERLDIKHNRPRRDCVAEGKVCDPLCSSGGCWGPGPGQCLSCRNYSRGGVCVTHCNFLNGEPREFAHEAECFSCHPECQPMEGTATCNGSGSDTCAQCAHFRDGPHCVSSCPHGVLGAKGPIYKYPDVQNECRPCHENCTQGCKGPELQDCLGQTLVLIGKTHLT
- Assay protocol: Octet (BLI)
Could you give me the number in s⁻¹? Just the number is fine.

Check out these entries, answers already filled in.
cHE6-G1W (antibody, human IgG1, V domains shown, also called chimeric HE6 antibody; not shown: human IgG1 heavy chain constant region, GenBank AXN93653.1; human kappa light chain constant region, GenBank AWK57456.1) VH: EVQLQQSGPDLVKPGTSVKMSCKASGYTFTDYYMHWVRQSHGKSLEWIGYINPNNGDAIYNQKFKGKATLTVNKSSTTAYMALRSLTSEDSAVYFCATYDYGGDFYFDVWGTGTTVTVSS VL: DIELTQSPALMSASPGEKVTMTCSASSSVSYMYWYQQKPRSSPKPWIYLTSNLASGVPARFSGSGSGTSYSLTISSMEAEDAATYYCQQWSRNPLTFGAGTKLELKR	0.000706
cHE4-G1W (antibody, human IgG1, V domains shown, also called chimeric HE4 antibody; cHE4-G1W4; not shown: human IgG1 heavy chain constant region, GenBank AXN93653.1; human kappa light chain constant region, GenBank AWK57456.1) VH: EVQLVESGGGLVKPGGSLKLSCAASGFTFSSYVMSWVRQTPEKRLEWVATISDGDSSTYYPDNVKGRFTISRDNAKNNLFLQMSHLKSEDTAMYFCARDKGHGYDEGAFVYWGQGTLVTVSA VL: DIQMTQSPASLSASVEETVTITCRASENIYSYLAWYQQKQGKSPQLLVYNAKTLAEGVPSRFSGSGSGTEFSLKINSLQPEDFGSYYCQNHYGTPYTFGGGTKLEIKQ	0.000116
cHE5-G1W (antibody, human IgG1, V domains shown, also called chimeric HE5 antibody; not shown: human IgG1 heavy chain constant region, GenBank AXN93653.1; human kappa light chain constant region, GenBank AWK57456.1) VH: EVQLQESGPGLVKPSQSLSLTCSVTGYSITSGYYWNWIRQFPGNKLEWMGYISYDGSNNYNPSLKNRISITRDTSKNQFFLKLNSVTTEDTATYYCASYDYDGDWFAYWGQGTLVTVSA VL: DIVLTQSPASLAVSLGQRATISCRASESVDHYGSSFMHWYQQKPGQPPKLLIYRASNPESGIPARFSGSGSRTDFTLTINPVETDDVATYYCQQSNKDPPTFGGGTKLEIKR	0.00154

Below: the item to evaluate.
The reported value for cHE7-G1W (antibody, human IgG1, V domains shown, also called chimeric HE7 antibody; not shown: human IgG1 heavy chain constant region, GenBank AXN93653.1; human kappa light chain constant region, GenBank AWK57456.1) VH: EVQLQQSGPDLVKPGTSVKMSCKASGYTFTDYYMHWVRQSHGKSLEWIGYINPNNGDAIYNQKFKGKATLTVDKSSTTAYMALRSLTSEDSAVYFCATYDYGGDFYFDVWGTGTTVTVSS VL: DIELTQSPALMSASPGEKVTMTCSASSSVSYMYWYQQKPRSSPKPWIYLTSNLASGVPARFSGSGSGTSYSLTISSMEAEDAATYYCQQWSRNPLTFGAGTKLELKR in terms of koff is 0.000912
